assay: Urine pharmacokinetics, single dose, study 1 part I, healthy men; conditions: male, human, in vivo, 500 mg, CLR, mean (95% CI), imipenem-cilastatin 500 mg alone, adult men from study 1
ENDPOINT NAME: CL renal (mL/min)

chemical_structure=CC1(C)C[C@@H]1C(=O)N/C(=C\CCCCSC[C@H](N)C(=O)O)C(=O)O obs_value=168

====

test: Plasma pharmacokinetics, single dose as 30-min i.v. infusion, study 1 part I, healthy men; conditions: male, human, plasma, intravenous, 500 mg, CEOI, relebactam 500 mg alone, single dose
ENDPOINT NAME: concentration at 30 min (µM)

chemical_structure=O=C(NC1CCNCC1)[C@@H]1CC[C@@H]2CN1C(=O)N2OS(=O)(=O)O obs_value=101

====

assay: clinical; conditions: male, human, in vivo, 500 mg
ENDPOINT NAME: CL renal (mL/min)

molecule="C[C@@H](O)[C@H]1C(=O)N2C(C(=O)O)=C(SCCN=CN)C[C@H]12 [Imipenem]" unit=mL/min obs_value=106

====

assay: Plasma pharmacokinetics, single dose as 30-min i.v. infusion, study 1 part I, healthy men; details: male, human, plasma, intravenous, harmonic mean terminal half-life (t1/2), range, single dose, 25- to 1,150-mg dose range, healthy men
ENDPOINT NAME: half-life

chemical_structure=O=C(NC1CCNCC1)[C@@H]1CC[C@@H]2CN1C(=O)N2OS(=O)(=O)O obs_value="1.35 to 1.8 h"

====

experiment: Plasma pharmacokinetics, single dose as 30-min i.v. infusion, study 1 part I, healthy men; conditions: male, human, plasma, intravenous, 1000 mg, Vz, relebactam 1,000 mg alone, single dose
ENDPOINT NAME: Vd (L)

compound="O=C(NC1CCNCC1)[C@@H]1CC[C@@H]2CN1C(=O)N2OS(=O)(=O)O [Relebactam]" obs_value=20.6

====

assay: Plasma pharmacokinetics, single dose as 30-min i.v. infusion, study 1 part I, healthy men; settings: male, human, plasma, intravenous, 1150 mg, AUC0–∞, relebactam 1,150 mg alone, single dose
ENDPOINT NAME: AUC(0-inf) (µM·h)

compound="O=C(NC1CCNCC1)[C@@H]1CC[C@@H]2CN1C(=O)N2OS(=O)(=O)O [Relebactam]" unit=µM·h obs_value=396

====

assay: Plasma pharmacokinetics, single dose as 30-min i.v. infusion, study 1 part I, healthy men; conditions: male, human, plasma, intravenous, 25 mg, CEOI, relebactam 25 mg alone, single dose;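 also: plasma analyte levels quantified by HILIC with tandem mass spectrometry, parameters derived noncompartmentally in WinNonlin, AUC by linear-up log-down trapezoidal rule, clearance taken as dose over AUC0–∞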
ENDPOINT NAME: concentration at 30 min (µM)

compound="O=C(NC1CCNCC1)[C@@H]1CC[C@@H]2CN1C(=O)N2OS(=O)(=O)O [Relebactam]" endpoint_name="concentration at 30 min" unit=µM obs_value=4.42

====

conditions: male, human, in vivo, Terminal t1/2, 500 mg relebactam + 500 mg imipenem/cilastatin, panel H, day 1
ENDPOINT NAME: half-life

compound="CC1(C)C[C@@H]1C(=O)N/C(=C\\CCCCSC[C@H](N)C(=O)O)C(=O)O [Cilastatin]" obs_value="1.01 h"

====

experiment: Urine pharmacokinetics, single dose, study 2; settings: both, human, urine and plasma, intravenous, CLR, range, elderly participants (men and women)
This section presents molecules with their documented CL renal values.
ENDPOINT NAME: CL renal

molecule="O=C(NC1CCNCC1)[C@@H]1CC[C@@H]2CN1C(=O)N2OS(=O)(=O)O [Relebactam]" endpoint_name="CL renal" obs_value="69.6 to 89.2 mL/min"
molecule="C[C@@H](O)[C@H]1C(=O)N2C(C(=O)O)=C(SCCN=CN)C[C@H]12 [Imipenem]" endpoint_name="CL renal" obs_value="67.6 to 80.9 mL/min"
